Reference source for all entries: PubChem BioAssay AID1159580

Each entry below carries its reported normalized growth.
assay: chemical genetic growth profiling, strain panel (AID 1159580);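 note: tested at 20 µM; growth read once vehicle control cultures reached saturation at 30 °C; 1 = growth at the plate median or of vehicle wells; lower values mean less growth of the strain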; details: S. cerevisiae deletion strains, growth OD, locus YDR318W, strain mcm21, active compounds read low
In all, about 5,500 compounds went through this assay and about 2,000 (36%) were called active. Inconclusive results (about 18%) are left out. Some of the results follow.

| COMPOUND | normalized growth |
| --- | --- |
| CCCOc1ccc2nc(NC(=O)OC)[nH]c2c1 | 0.977 (inactive) |
| CC(C)CCCC(C)[C@H]1CCC2C3C(=O)C=C4C[C@@H](O)CC[C@]4(C)C3CC[C@@]21C (stereo partly specified) | 1.03 (inactive) |
| COc1ccc2cc(CCC(C)=O)ccc2c1 | 0.93 (inactive) |
| COc1cc(C(C)=O)cc(OC)c1O | 0.991 (inactive) |
| CCOC(=O)NNc1nncc2ccccc12 | 0.974 (inactive) |
| CC12CCC(O)CC1CCC1C2[C@H](O)CC2(C)C(C3=CC(=O)OC3)CCC12O (stereo partly specified) | 0.998 (inactive) |
| CC(=O)c1cc(CC=C(C)C)c(O)c(CC=C(C)C)c1 | 0.971 (inactive) |
| CC(=O)O[C@H]1CC[C@@]2(C)C(=CC(=O)C3C4CCC(C(C)CCCC(C)C)[C@@]4(C)CCC32)C1 (stereo partly specified) | 0.978 (inactive) |
| CCCSc1ccc2nc(NC(=O)OC)[nH]c2c1 | 0.956 (inactive) |
| CC(=O)c1ccc(O)c(CC=C(C)C)c1 | 0.958 (inactive) |
| CC(C)CC(NC(=O)OCC1c2ccccc2-c2ccccc21)C(=O)O (stereo unspecified) | 1.02 (inactive) |
